Where do the numbers come from? From patent US5124158A.

- method: Transdermal application to backs of rats, (H+-K+) ATPase activity in fundic gastric mucosal microsomes (K+-dependent ATP-hydrolysis)
- Type: in vivo, rat
- run-conditions: rat, in vivo, topical or ocular, transdermal, lowest dose 25 mg/kg, read-out: fraction of the lowest dose absorbed
measurement-label: Fa

Query: Which Fa reading was recorded for the molecule CCSc1ccnc(C[S+]([O-])c2nc3ccccc3[nH]2)c1C (stereo not shown) ?
Response: ≥ 4%
